// data source = the supplement of paper PMC10981050

- System: MARIMO
- ASSAY INFO: cell viability relative to vehicle control; higher = less cytotoxic;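 note: after 48 h exposure read by CellTiter-Glo luminescence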
- TEST SETTINGS: 10 µM; SRSF2 genotype: SRSF2 P95H/wt
Listed compounds paired with reported cell viability

CC(=O)OC(C)C(C)C(=O)OCC12C3CC(C)(C)[C@H](O[C@@H]1C[C@]1(C)C3=CCC3C4(C)CCC(O[C@@H]5O[C@H](C(=O)O)[C@@H](O[C@H]6O[C@H](CO)[C@@H](O)[C@H](O)[C@H]6O)[C@H](O)[C@H]5O[C@@H]5OC[C@@H](O)[C@H](O)[C@H]5O)[C@](C)(CO)C4CCC31C)C2O (some centres not stated) [Sodium Aescinate]
95.5%

# input for lookup
# value of cell viability, MARIMO, item CCCCC(=O)N(Cc1ccc(-c2ccccc2-c2nnn[nH]2)cc1)[C@H](C(=O)O)C(C)C [Valsartan (Diovan)] = 102%

----------
Each record here notes measured cell viability.
- System: K562
- ASSAY INFO: cell viability relative to vehicle control; higher = less cytotoxic
- TEST SETTINGS: 10 µM; SRSF2 genotype: SRSF2 wt/wt
Hi! Could you send only the number? It should be in %, unit omitted.

CN(CCO)CC(O)Cn1cnc2c1c(=O)n(C)c(=O)n2C (configuration not stated) [Xanthinol Nicotinate]
97.9

Reported cell viability for `Cc1cc(N2CCOCC2)ccc1Nc1nc(NC2CCCCC2)c2[nH]cnc2n1` was 94.6

According to the records, this molecule `CO[C@@H]1[C@H](OC(=O)/C=C/C=C/C=C/C=C/C(=O)O)CC[C@]2(CO2)[C@H]1[C@@]1(C)O[C@@H]1CC=C(C)C` displays cell viability of 72.3

Query `CN1CCN(c2ccc(-c3ccncc3-c3cc(F)c(O)c(F)c3)cc2)CC1` yields cell viability of 95.9

----------
- Test system: MARIMO
- ASSAY INFO: cell viability relative to vehicle control; higher = less cytotoxic
- TEST SETTINGS: 10 µM; SRSF2 genotype: SRSF2 P95H/wt
PARAMETER MEASURED: cell viability (%)
Report the figure in % without appending any unit label.

COc1cc(C(=O)O)ccc1NC(=O)[C@@H]1N[C@@H](CC(C)(C)C)[C@](C#N)(c2ccc(Cl)cc2F)[C@H]1c1cccc(Cl)c1F [Idasanutlin (RG-7388)]
116
NC(=O)c1cn(Cc2c(F)cccc2F)nn1 [Rufinamide (Banzel)]
106
N#CC(c1ccc(Cl)cc1)c1c(Cl)cc(-n2ncc(=O)[nH]c2=O)cc1Cl (stereo unspecified)
83.8

Next:
Recorded result, `CC(C)NC[C@@H](C(=O)N1CCN(c2ncnc3c2[C@H](C)C[C@H]3O)CC1)c1ccc(Cl)cc1` , cell viability: 80.8

----------
# reported cell viability; entries follow
- System: OCI-AML2
- ASSAY INFO: cell viability relative to vehicle control; higher = less cytotoxic
- TEST SETTINGS: 10 µM; SRSF2 genotype: wt/wt
Where a name gives a salt, the structure may show the parent alone.
// units = %; emit number, no label

In the examples that follow, each entry is paired with its recorded cell viability.
NC(=O)Nc1cc(-c2cccc(F)c2)sc1C(=O)N[C@H]1CCCNC1
8.51
COC1=C(OC)C(=O)C(CCCCCCCCCCO)=C(C)C1=O
75.2
CNc1ncc2cc(-c3cc(NC(=O)NCCC(C)(C)C)c(F)cc3C)c(C)nc2n1
34.6
O=C(Nc1c(Cl)cncc1Cl)c1ccc(OC(F)F)c(OCC2CC2)c1
96

Now, please, on to the next compound.
The reported cell viability value, OCI-AML2, for NC(C=O)C(O)C(O)C(O)CO (stereo not given) [Glucosamine sulfate] reads 104
